Parameter %Inh: see the listing below.
System: STK33
Conditions: concentration: 1 μM, replicates: in singlicate; n = 1;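 further: KINOMEscan kinase panel screen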
I only need the number, in %, no unit after it.

Look over these answered cases.
molecule=COc1cc2ncn(-c3cc(OCc4ccncc4)c(C(N)=O)s3)c2cc1OC unit_label=% recorded_value=0
molecule=Cc1nn2c(=O)cc(N3CCOCC3)nc2n1Cc1cccc(Cl)c1Cl unit_label=% recorded_value=0
molecule=COc1cccc(C2=C(Nc3cccc(C(=O)O)c3)C(=O)NC2=O)c1 unit_label=% recorded_value=2
molecule=COc1ccc(-c2cc3c(C)nc(N)nc3n([C@H]3CC[C@H](O)CC3)c2=O)cn1 unit_label=% recorded_value=0
molecule=Cl.NS(=O)(=O)c1cccc(Nc2cc(-c3ccc(F)cc3)n[nH]2)c1 unit_label=% recorded_value=0
molecule=COc1ccc(-n2cnc3c(N)ncnc32)cc1 unit_label=% recorded_value=20
molecule=COc1cccc(-n2cnc3c(N)ncnc32)c1 unit_label=% recorded_value=12
molecule=Cc1ccccc1COc1cc(-n2cnc3cc(Cl)ccc32)sc1C(N)=O unit_label=% recorded_value=30

// lookup %Inh for Cc1ccc(Oc2ccc(Nc3ncnc4cc[nH]c34)cc2C)cn1
0

Given COc1cc2nccc(Nc3ccc(OCc4ccc(NC(C)=O)cc4)cc3)c2cc1OC.Cl , state its recorded %Inh.
15

// %Inh lookup, key: COC(=O)c1c(-c2ccccc2)c2cc(Br)ccc2c(=O)n1Cc1ccc(NC(=O)CCC(=O)O)cc1
0

# get_value(readout='%Inh', item= FC(F)(F)c1ccc(-c2ncn(CCCN3CCOCC3)c2-c2ccncc2)cc1 )
0

Which %Inh value belongs to Cc1nnc(-c2ccc(C)c(-c3ccc(C(=O)O)cc3)c2)o1 ?
0

Query (molecule): CCC(=O)c1c(-c2ccccc2)c2cc(Cl)ccc2c(=O)n1Cc1cc(S(C)(=O)=O)n(CCC(C)(C)O)n1 ; field requested: %Inh
8

Dear colleague, I am looking for the recorded %Inh of the following molecule: CN1C(=O)C(Nc2cc(Cl)c(O)c(Cl)c2)=C(c2ccc(Cl)cc2)C1=O
0

Which %Inh is listed for Nc1ncnc2c1ncn2-c1cccc2ccccc12 ?
0

I'd like to know its %Inh. The molecule in question is COc1cc(Nc2nccc(N3CCC(NC(=O)C4COc5ccccc5O4)C3)n2)cc(OC)c1OC (stereo not drawn)
4

Record request: %Inh value, item CCC(=O)c1c(-c2ccccc2)c2cc(Cl)ccc2c(=O)n1Cc1ccc(C(=O)O)cc1
0

====

Tested on: LATS2
Settings: concentration: 1 μM, replicates: in singlicate; n = 1
Reported %Inh by item:
Field: numeric (%). Do not append units.

molecule=CCc1ccc(-c2ccc3c(c2)-c2nn(C)cc2S(=O)(=O)N3C)cc1 recorded_value=0

Would you kindly share the measured %Inh for COc1cc(Nc2ccnc3ccc(C(F)(F)F)cc23)cc(OC)c1OC ?
0

Look up %Inh: COc1cc2ncn(-c3cc(OCCCc4ccccc4)c(C(N)=O)s3)c2cc1OC
15

Quick check: %Inh of Cl.NS(=O)(=O)c1cccc(Nc2cc(-c3ccc(F)cc3)n[nH]2)c1 ?
0

Endpoint output: %Inh of COc1cc2ncn(-c3cc(OCc4ccncc4)c(C(N)=O)s3)c2cc1OC . Value?
8

Recorded %Inh of FC(F)(F)c1ccc(-c2ncn(CCCN3CCOCC3)c2-c2ccncc2)cc1 , please.
27

Which %Inh value belongs to Cc1nn2c(=O)cc(N3CCOCC3)nc2n1Cc1cccc(Cl)c1Cl ?
0

Requested field: %Inh. Item: COC(=O)c1c(-c2ccccc2)c2cc(C)ccc2c(=O)n1Cc1ccccc1
0

Fill in: %Inh of CCC(=O)c1c(-c2ccccc2)c2cc(Cl)ccc2c(=O)n1Cc1cc(C(=O)NC2CC2)n(C)n1 is ___
1

Could you share which %Inh value was measured for COC(=O)c1c(-c2ccccc2)c2cc(Br)ccc2c(=O)n1Cc1ccc(S(C)(=O)=O)cc1 ?
30

Name the recorded %Inh for O=C(NCCNc1ccnc(Nc2ccc(F)cc2)n1)Nc1ccc2c(c1)OCO2 .
17

// lookup %Inh for O=C(Nc1n[nH]c2nc(-c3ccccc3)c(Br)cc12)C1CC1
0

Given the entry Cc1cc(Nc2nc(-c3cccc(C)n3)nc3ccccc23)ccn1 , report its measured %Inh.
0

Item under review: Cc1c(Cn2c(C)nn3c(=O)cc(N4CCO[C@H](C)C4)nc23)cccc1C(F)(F)F . Reported %Inh?
0

Give the measured %Inh of COc1cccc(-n2cnc3c(N)ncnc32)c1 .
1

So what's the measured %Inh for this one? Cc1cccc(-c2cc(-c3c[nH]nc3-c3ccccn3)ccn2)c1
3

%Inh for Cc1nnc(-c2ccc(C)c(-c3ccc(C(=O)O)cc3)c2)o1 ?
0

// returns reported %Inh for input CCC(=O)c1c(-c2ccccc2)c2cc(Cl)ccc2c(=O)n1Cc1cc(S(C)(=O)=O)n(CC(F)F)n1
0

Query: %Inh; subject: CN(C)c1cc(-c2ccc3c(N)n[nH]c3c2)nc(N)n1
2

Request the reported %Inh associated with Cc1ccc(Oc2ccc(Nc3ncnc4cc[nH]c34)cc2C)cn1
44

State the recorded %Inh for this entry: COc1ccc(-n2cnc3c(N)ncnc32)cc1
34

Name the recorded %Inh for CCn1c(-c2ccoc2)nc2cnccc21 .
60

Which value of %Inh has been reported for Cc1ccc(-c2ccc3c(ccc4sc5c(c43)NC[C@@H](C)N=C5N(C)C)n2)cn1 in the records?
18

Returns the measured %Inh for the input molecule. Input: Nc1nc(-c2ccccc2F)c(-c2ccnc3ccccc23)s1
0

====

Test system: NDR1
Construct: gene STK38
Details: concentration: 1 μM, replicates: in singlicate; n = 1
observable: %Inh (%)
Use % as the unit, but write only the number.

compound=C[C@@H]1CC[C@H](C(=O)NC2CCCCC2)CN1c1cc(-c2ccc3c(N)n[nH]c3c2)nc(N)n1 recorded_value=14

If you can, please state the reported %Inh value of COc1cc2ncn(-c3cc(OCCCc4ccccc4)c(C(N)=O)s3)c2cc1OC .
0

What value of %Inh has been recorded for this entry: COc1cc(Nc2nccc(N3CCC(NC(=O)C(C)c4ccc(Cl)cc4)C3)n2)cc(OC)c1OC (stereo not shown)
26

Could you tell me which %Inh is on file for CN(C)c1cc(-c2ccc3c(N)n[nH]c3c2)nc(N)n1 ?
17

====

Test system: ROCK1
Settings: concentration: 1 μM, replicates: in singlicate; n = 1
observable: %Inh
Could you give the number and then its unit, please?

molecule=Cl.NS(=O)(=O)c1cccc(Nc2cc(-c3ccc(F)cc3)n[nH]2)c1 recorded_value=0%
molecule="COc1ccc(CNC(=O)NC2CCN(c3ccnc(Nc4ccc(F)cc4)n3)C2)cc1 (stereo not shown)" recorded_value=29%
molecule=OCCCNc1nccc(-c2c(-c3cccc(C(F)(F)F)c3)nn3cc(C(F)(F)F)ccc23)n1 recorded_value=11%
molecule=COc1ccc(-n2cnc3c(N)ncnc32)cc1 recorded_value=5%
molecule=CCc1nc(-c2cccc(C)c2)c(-c2ccncc2)s1 recorded_value=0%
molecule=Cn1c(=O)c(F)c(Nc2ccc(I)cc2F)c2c(=O)n(OC[C@H](O)CO)cnc21 recorded_value=0%

Consider the additional molecule presented here.
Name the recorded %Inh for O=C(Nc1n[nH]c2nc(-c3ccccc3)c(Br)cc12)C1CC1 .
7%

====

Test system: MEK4
Construct: gene MAP2K4
Settings: concentration: 1 μM, replicates: in singlicate; n = 1
observable: %Inh

API: value(readout= %Inh, system= MEK4, query= Nc1n[nH]c2nnc(-c3ccccc3)c(-c3ccccc3)c12 [GW554060] )
14%

Any idea what %Inh came out for COC(=O)c1c(-c2ccccc2)c2cc(Br)ccc2c(=O)n1Cc1ccc(NC(=O)CCC(=O)O)cc1 on MEK4?
10%

Enter reported %Inh observed with MEK4 for O=C1NC(=O)C(c2ccccc2)=C1Nc1cccc(O)c1 [SB-390534]
12%

Query for MEK4: what %Inh does the record show for Cc1cc(Nc2nc(-c3cccc(C)n3)nc3ccccc23)ccn1 [GW872411] ?
0%

MEK4 / %Inh / CCC(=O)c1c(-c2ccccc2)c2cc(Cl)ccc2c(=O)n1Cc1ccc(C(=O)O)cc1 : value?
0%

For MEK4, provide %Inh of Cc1ccc(-c2ccc3c(ccc4sc5c(c43)NC[C@@H](C)N=C5N(C)C)n2)cn1 please.
0%

What is its %Inh for MEK4? Entry: C[C@@H]1CC[C@H](C(=O)NC2CCCCC2)CN1c1cc(-c2ccc3c(N)n[nH]c3c2)nc(N)n1 [GSK2291363]
27%

Give the reported %Inh for Nc1n[nH]c2ncc(-c3ccccc3)cc12 [SB-517081] (system: MEK4).
0%

For the record Cc1nn2c(=O)cc(N3CCOCC3)nc2n1Cc1cccc(Cl)c1Cl [GSK2342769] , what value of %Inh is listed for MEK4?
31%

Find the measured %Inh: item COc1cc2nccc(Nc3cccc(Oc4ccccc4)c3)c2cc1OC.Cl [GW284543] , target or system MEK4.
0%

API: value(readout=%Inh, system=MEK4) for record COc1ccc(-c2cc3c(C)nc(N)nc3n([C@H]3CC[C@H](OCCO)CC3)c2=O)cn1
0%

Request: %Inh, test system MEK4, entry CC(C)(C)c1ccc(C(=O)Nc2cn3cc(-c4ccccc4)ccc3n2)cc1
0%

Provide value of %Inh for this record tested with MEK4: Cc1cccc(-c2cc(-c3c[nH]nc3-c3ccccn3)ccn2)c1 [GW679395]
36%

For MEK4, provide %Inh of Cc1nc(N(C)[C@H]2CN(C(=O)CC#N)CC[C@H]2C)c2cc[nH]c2n1 please.
0%
